Tested system: KRAS (G12C)::SOS1 (Homo sapiens, UniProt P01116, C118S/C51S/C80L/G12C)
Construct: KRAS (G12C) 1-169, N-terminal 6His-tag for purification, cleaved off; 6His-tag (N, cleaved yes)
Sequence (P01116 1-169 isoform P01116-2 G12C/C51S/C80L/C118S): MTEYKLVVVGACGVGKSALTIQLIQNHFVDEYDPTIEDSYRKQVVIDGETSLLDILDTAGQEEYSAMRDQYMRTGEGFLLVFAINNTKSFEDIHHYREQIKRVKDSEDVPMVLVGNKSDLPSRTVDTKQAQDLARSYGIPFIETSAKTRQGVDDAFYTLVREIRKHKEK
Experiment: KRAS::SOS1 AlphaScreen binding assay, KRAS G12C
Property label: IC50 (nM)

C[C@H]1CNCCCN1c1nccc(-c2noc3c2OCCC32CCCc3sc(N)c(C#N)c32)n1 (stereo partly shown)
4
CCN1[C@H]2C[C@H]2C[C@H]1[C@H](C)Oc1nccc(-c2onc3c2CCC[C@@]32CCCc3sc(N)c(C#N)c32)n1
7
C[C@H]1CN(CC2CC2)CCCN1c1nccc(-c2onc3c2CCC[C@@]32CCCc3sc(N)c(C#N)c32)n1
8

[1] CC(Oc1nccc(-c2onc3c2CCC[C@@]32CCCc3sc(N)c(C#N)c32)n1)C12CCCN1CCC2 (stereo partly shown)
[2] CC1Cc2c(-c3ccnc(N4CCCNC[C@@H]4C)n3)noc2C2(CCCc3sc(N)c(C#N)c32)C1 (stereo partly shown)
[3] C[C@H](Oc1nccc(-c2onc3c2CCC[C@@]32CCCc3sc(N)c(C#N)c32)n1)[C@@H]1C[C@@H]2C[C@@H]2N1
[4] C[C@H](Oc1nccc(-c2noc3c2CCC[C@@]32CCCc3sc(N)c(C#N)c32)n1)[C@@H]1CCCN1C
## Task Hi! Can you put these in order of IC50, lowest number first? Your reply should list the labels following the order given in the request.
## Result 4, 1, 3, 2
(4: 4 nM, 1: 6 nM, 3: 15 nM, 2: 44 nM)

---

Experiment: Solubility measurement (DMSO solution precipitation method)
Assay type: physicochemical
Condition parameters: aqueous buffer, kinetic from dmso stock; McIlvaine buffer pH 4.5, 24 h, ambient temperature; read-out: solubility pH 4.5
Property label: solubility at 24 h

Consider the following illustrative entries.
C[C@H](Oc1nccc(-c2onc3c2CCC[C@@]32CCCc3sc(N)c(C#N)c32)n1)[C@@H]1CCCN1C
> 110 µg/mL
CC1Cc2c(-c3ccnc(N4CCCNC[C@@H]4C)n3)noc2C2(CCCc3sc(N)c(C#N)c32)C1 (stereo partly shown)
57 µg/mL
C[C@H]1CNCCCN1c1ncnc(-c2onc3c2CCC[C@@]32CCCc3sc(N)c(C#N)c32)n1
> 104 µg/mL

Kindly consider the entry below.
## Task // returns reported solubility at 24 h for input "C[C@H]1[C@@H]2CCCN2CCCN1c1nccc(-c2onc3c2CCC[C@@]32CCCc3sc(N)c(C#N)c32)n1"
## Result > 117 µg/mL

---

Tested system: KRAS G12V Ba/F3 cells (Homo sapiens, UniProt P01116, G12V, cells depend on it)
Sequence (P01116 whole entry G12V): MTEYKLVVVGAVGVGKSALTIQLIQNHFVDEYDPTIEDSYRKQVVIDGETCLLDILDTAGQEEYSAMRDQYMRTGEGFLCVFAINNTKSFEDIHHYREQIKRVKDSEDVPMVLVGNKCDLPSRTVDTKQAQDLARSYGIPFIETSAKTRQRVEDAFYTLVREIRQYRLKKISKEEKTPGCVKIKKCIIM
Experiment: Ba/F3 proliferation assay, KRAS G12V
Type: cell-based
Condition parameters: 72 h, AlamarBlue; read-out: KRAS G12V Ba/F3 IC50
Property label: GI50 (nM)

C[C@H]1CNCCCN1c1nccc(-c2onc3c2CCC[C@@]32CCCc3sc(N)c(C#N)c32)n1
98
C[C@H](Oc1nccc(-c2onc3c2CCC[C@@]32CCCc3sc(N)c(C#N)c32)n1)[C@@H]1C[C@@H](F)CN1C
106
C[C@H]1CNCCCN1c1nccc(-c2noc3c2OCCC32CCCc3sc(N)c(C#N)c32)n1 (stereo partly drawn)
136
C[C@H](Oc1nccc(-c2noc3c2CCC[C@@]32CCCc3sc(N)c(C#N)c32)n1)[C@@]1(C)CCCN1C
203

[I] C[C@H](Oc1nccc(-c2onc3c2CCC[C@@]32CCCc3sc(N)c(C#N)c32)n1)[C@@H]1C[C@@H]2C[C@@H]2N1C
[II] CC1Cc2c(-c3ccnc(N4CCCNC[C@@H]4C)n3)noc2C2(CCCc3sc(N)c(C#N)c32)C1 (stereo partly drawn)
## Task Higher GI50: I or II ? Return value: the label identifying the chosen record.
## Result II

---

Tested system: KRAS G12C Ba/F3 cells (Homo sapiens, UniProt P01116, G12C, cells depend on it)
Sequence (P01116 whole entry G12C): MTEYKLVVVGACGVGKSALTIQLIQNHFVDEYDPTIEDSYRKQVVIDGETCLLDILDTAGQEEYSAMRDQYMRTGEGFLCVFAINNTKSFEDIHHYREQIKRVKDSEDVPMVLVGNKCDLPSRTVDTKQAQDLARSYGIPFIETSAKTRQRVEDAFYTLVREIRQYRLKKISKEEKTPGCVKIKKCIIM
Experiment: Ba/F3 proliferation assay, KRAS G12C
Type: cell-based
Condition parameters: 72 h, AlamarBlue; read-out: KRAS G12C Ba/F3 IC50
Property label: GI50 (nM)

C[C@H](Oc1nccc(-c2onc3c2CCC[C@@]32CCCc3sc(N)c(C#N)c32)n1)[C@@H]1C[C@@H]2C[C@@H]2N1C [Ih-1]
72

[a] C[C@H](Oc1nccc(-c2noc3c2CCC[C@@]32CCCc3sc(N)c(C#N)c32)n1)[C@@H]1CCCN1C [IIb-6]
[b] C[C@H](Oc1nccc(-c2n[nH]c3c2CCCC32CCCc3sc(N)c(C#N)c32)n1)[C@@H]1CCCN1C (stereo partly drawn) [IIIa-1]
[c] C[C@H]1CNCCCN1c1ncnc(-c2onc3c2CCC[C@@]32CCCc3sc(N)c(C#N)c32)n1 [Ib-4]
[d] C[C@H]1CNCCCN1c1nccc(-c2onc3c2CCC[C@@]32CCCc3sc(N)c(C#N)c32)n1 [If-1]
## Task // ranking: key=GI50, reverse=True Response format: the labels, sorted as the prompt asks.
## Result b, c, d, a

---

Tested system: KRAS (G12D)::SOS1 (Homo sapiens, UniProt P01116, G12D)
Construct: KRAS (G12D) 1-169, N-terminal 6His-tag, C-terminal avi-tag; 6His-tag (N); Viva Biotech Ltd (SOS1)
Sequence (P01116 1-169 isoform P01116-2 G12D): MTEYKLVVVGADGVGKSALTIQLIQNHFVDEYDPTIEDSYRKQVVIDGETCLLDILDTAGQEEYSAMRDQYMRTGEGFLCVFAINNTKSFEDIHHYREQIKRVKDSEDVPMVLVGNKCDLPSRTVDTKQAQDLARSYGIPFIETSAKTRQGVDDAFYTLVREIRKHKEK
Experiment: KRAS::SOS1 AlphaScreen binding assay, KRAS G12D
Method: Low IC50 values in this assay setting are indicative of strong inhibition of protein-protein interaction between SOS1 and KRAS: […] Plates are kept at room temperature in a darkened incubator. After an additional 60 minutes incubation time the signal is measured in a PerkinElmer Envision HTS Multilabel Reader using the AlphaScreen specs from PerkinElmer. IC50 values are calculated and analyzed with Boehringer Ingelheim's MEGALAB IC50 application using a 4 parametric logistic model.
Property label: IC50 (nM)

Field: example entries. Status: answers known.
C[C@H]1CN(C2CCOCC2)CCCN1c1nccc(-c2noc3c2CCC[C@@]32CCCc3sc(N)c(C#N)c32)n1 (single isomer, unassigned) [IIg-1]
4
C[C@H](Oc1ccnc(-c2noc3c2CCC[C@@]32CCCc3sc(N)c(C#N)c32)n1)[C@@H]1CCCN1C [IIb-3]
2
C[C@H]1CNCCCN1c1nccc(-c2noc3c2CCC[C@@]32CCCc3sc(N)c(C#N)c32)n1 (single isomer, unassigned) [IIb-5]
3

[a] CCN1[C@H]2C[C@H]2C[C@H]1[C@H](C)Oc1nccc(-c2onc3c2CCC[C@@]32CCCc3sc(N)c(C#N)c32)n1 [Ie-3]
[b] C[C@H]1CNCCCN1c1nccc(-c2onc3c2CCC[C@@]32CCCc3sc(N)c(C#N)c32)n1 [If-1]
## Task Lower value for measured IC50? Options: a , b When you have decided, please share the label of that item.
## Result a

---

Experiment: Solubility measurement (DMSO solution precipitation method)
Assay type: physicochemical
Condition parameters: aqueous buffer, kinetic from dmso stock; McIlvaine buffer pH 6.8, 24 h, ambient temperature; read-out: solubility pH 6.8
Property label: solubility at 24 h (µg/mL)

Worked cases, answers included:
C[C@H]1CNCCCN1c1ncnc(-c2onc3c2CCC[C@@]32CCCc3sc(N)c(C#N)c32)n1
95
C[C@H]1CNCCCN1c1nccc(-c2noc3c2CCC[C@@]32CCCc3sc(N)c(C#N)c32)n1 (single isomer, unassigned)
51

[A] CC1Cc2c(-c3ccnc(N4CCCNC[C@@H]4C)n3)noc2C2(CCCc3sc(N)c(C#N)c32)C1 (some centres unmarked)
[B] C[C@H](Oc1nccc(-c2onc3c2CCC[C@@]32CCCc3sc(N)c(C#N)c32)n1)[C@@H]1C[C@@H]2C[C@@H]2N1C
## Task Parameter metric = solubility at 24 h. Return the lower-valued option from A and B . Selection: enter the item's label.
## Result A
(A: 32 µg/mL, B: 93 µg/mL)

[P] C[C@H](Oc1nccc(-c2onc3c2CCC[C@@]32CCCc3sc(N)c(C#N)c32)n1)[C@@H]1C[C@@H](F)CN1C
[Q] C[C@H]1CNCCCN1c1nccc(-c2noc3c2CC(F)(F)CC32CCCc3sc(N)c(C#N)c32)n1 (some centres unmarked)
## Task For this pair, P and Q , which shows a numerically higher solubility at 24 h? Output the label that corresponds to your choice.
## Result P
(P: 41 µg/mL, Q: 27 µg/mL)

---

Tested system: KRAS (G12V)::SOS1 (Homo sapiens, UniProt P01116, C118S/G12V)
Construct: KRAS (G12V) 1-169, N-terminal 6His-tag, for purification, cleaved off; 6His-tag (N, cleaved yes); TEV cleavage site
Sequence (P01116 1-169 isoform P01116-2 G12V/C118S): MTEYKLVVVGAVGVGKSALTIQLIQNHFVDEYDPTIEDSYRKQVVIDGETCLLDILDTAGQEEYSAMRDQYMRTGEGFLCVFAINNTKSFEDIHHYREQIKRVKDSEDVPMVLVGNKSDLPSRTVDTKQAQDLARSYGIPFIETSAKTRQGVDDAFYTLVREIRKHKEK
Experiment: KRAS::SOS1 AlphaScreen binding assay, KRAS G12V
pIC50: −log10 of the molar value.
Property label: pIC50

[A] C[C@H](Oc1ccnc(-c2noc3c2CCC[C@@]32CCCc3sc(N)c(C#N)c32)n1)[C@@H]1CCCN1C
[B] C[C@H](Oc1nccc(-c2onc3c2CCC[C@@]32CCCc3sc(N)c(C#N)c32)n1)[C@@H]1C[C@@H](F)CN1C
[C] C[C@H]1[C@@H]2CCCN2CCCN1c1nccc(-c2onc3c2CCC[C@@]32CCCc3sc(N)c(C#N)c32)n1
[D] C[C@H]1CNCCCN1c1nccc(-c2onc3c2CCC[C@@]32CCCc3sc(N)c(C#N)c32)n1
## Task Using the recorded pIC50, list the entries above from smallest to largest. Your task in answering is to list the labels in the requested order.
## Result D, B, C, A
